# Test system: A549
# ASSAY PROTOCOL: Antiproliferative activity against human A549 cells by sulforhodamine B assay
# Type: functional
Each entry below carries its recorded GI50.

{"columns": ["SMILES STR", "TARGET OF ASSAY", "GI50"],
 "data": [
  ["C=C1[C@H]2C[C@@H]3C4N5C[C@]6(C)CCC[C@@]47[C@@H]6[C@@]5(O)C[C@]3([C@@H]1O)[C@H]7[C@H]2OC(=O)c1ccc(C(F)(F)F)cc1", "A549", "10 µM"],
  ["CO[C@H]1[C@@H]2C[C@@H]3[C@H]1[C@](O)(C[C@@H]2OC)[C@@]1(O)C2N=C[C@]4(COC(=O)c5ccccc5N)CC[C@H](OC)[C@@]23[C@@H]4[C@@H]1OC", "A549", "> 20 µM"],
  ["C=C1[C@H]2C[C@@]3([C@@H]1O)[C@@H](C[C@@H]2O)[C@@]12C4[C@@H]3C[C@@H]1[C@@](C)(CC[C@@H]2OC(C)=O)CN4CC", "A549", "> 20 µM"]
]}
